Where these numbers come from: patent US10836728B2

target: MOR (Homo sapiens (Human), UniProt P35372); type: cell-based; conditions: β-arrestin vs cAMP, from EC50 and Emax
Mark Criterion met only for ΔRA of compound values smaller than -2; exact matches and larger values are Criterion not met.

CN(C)C[C@@H]1CN(Cc2ccc(F)cc2Cl)CC[C@@]1(O)c1cccc(C(N)=O)c1 (single isomer, unassigned; ent-b) [Ent-B-syn-(6)]	Criterion not met
CN(C)CC1CN(CCc2ccc(O)cc2)CCC1(O)c1cccc(C(N)=O)c1 (stereo not shown)	Criterion not met
CN(C)CC1CN(Cc2ccc(F)cc2Cl)CCC1(O)c1cccc(C(N)=O)c1 (stereo not shown)	Criterion not met

In the following, a different compound is considered.
A record lists CN(C)CC1CN(CCc2ccccc2)CCC1(O)c1cccc(C(N)=O)c1 (stereo not shown) . Is its ΔRA of compound below -2? Criterion met

###

The entries below come with measured Emax values attached.
Target: UniProtKB P35372
Assay: cell-based
Assay type: cell-based
Details: OPRM1, read-out: β-Arrestin Emax
Protocol: The technology is based on Enzyme Fragment Complementation (EFC) with β-galactosidase (β-Gal) as the reporter. […] EA is fused to β-arrestin-2, and ED is fused to the C-terminus of the GPCR of interest. When a ligand binds and the GPCR is activated, β-arrestin-2 is recruited to the receptor resulting in an ED/EA complementation, restoring β-Gal activity, which is measured using chemiluminescence. For this assay, the PathHunter human OPRM1 (μ, MOR) Arrestin CHO-K1 cell line was used.

CN(C)CC1CN(CCc2ccsc2)CCC1(O)c1cccc(C(N)=O)c1 (centres unmarked)	< 10%
CN(C)CC1CN(CCCc2ccccc2)CCC1(O)c1cccc(C(N)=O)c1 (centres unmarked)	14%
CN(C)CC1CN(Cc2ccsc2)CCC1(O)c1cccc(C(N)=O)c1 (centres unmarked)	37%
CN(C)CC1CN(CCc2ccc(O)cc2)CCC1(O)c1cccc(C(N)=O)c1 (centres unmarked)	24%

Now consider a different compound.
Any idea what Emax was measured for COc1ccc(CCN2CCC(O)(c3cccc(C(N)=O)c3)C(CN(C)C)C2)cc1 (centres unmarked) ? < 10%

###

biological target: MOR (Homo sapiens (Human), UniProt P35372); assay type: cell-based; settings: β-arrestin vs cAMP, from EC50 and Emax
Experimental endpoint: ΔRA of compound

CN(C)CC1CN(CCCc2ccccc2)CCC1(O)c1cccc(C(N)=O)c1 (stereo not drawn) [(20)]	−2.28
CN(C)CC1CN(Cc2ccsc2)CCC1(O)c1cccc(C(N)=O)c1 (stereo not drawn) [(11)]	−1.77

Now consider a different compound.
Any idea what ΔRA of compound was measured for CN(C)C[C@H]1CN(Cc2ccc(F)cc2Cl)CC[C@]1(O)c1cccc(C(N)=O)c1 (single isomer, unassigned; ent-a) [Ent-A-syn-(6)] ? −1.63
